Data provenance is paper PMC6315506.

tested on: A549 cells; conditions: 10 µM
Reported Cell Viability is given for each of the following compounds.
Numeric only. Scale: %

A selection of reference data follows.
Compound: COc1nc2ccccc2cc1C(O)(Cc1cccc(F)c1)c1ccccc1 (stereo not drawn)
Cell Viability, %: 79.56
//
Compound: CN(C)Cc1cccc(-c2cc3ccccc3nc2Oc2cccc3ccccc23)c1
Cell Viability, %: 80.11

Now for the compound whose Cell Viability we want.
Q) In one line, give reported Cell Viability of the entry CN1CCC(c2ccccc2)(C(O)(c2ccccc2)c2ccccc2)CC1 .
A) 77.89

###

system: HIV-1/LASV pseudovirus; test: microbe, parasite or virus in culture; type: cell-based; conditions: 10 µM
Inhibition HIV/LASV values, listed per item
Answer format: numeric, % implied, no suffix.

Some molecules with recorded Inhibition HIV/LASV:
Molecule: CN1CCN(c2ccc(-c3cc4cc(Br)ccc4nc3OCc3cccc4ccccc34)cn2)CC1 [SYL1687]
Inhibition HIV/LASV, %: 88.94
--
Molecule: CCN(CC)CCc1ccc(-c2cc3cc(Br)ccc3nc2OCc2cccc3ccccc23)cc1 [SYL1671]
Inhibition HIV/LASV, %: 89.90
--
Molecule: COc1ccc(CC(O)(c2ccccc2CN(C)C)c2cc3cc(OC)ccc3nc2OC)cc1 (centres unmarked) [SYL1663]
Inhibition HIV/LASV, %: 89.19
--
Molecule: Fc1cccc(COc2nc3ccc(Br)cc3cc2-c2cccc(-c3ncco3)c2)c1 [SYL1650]
Inhibition HIV/LASV, %: 87.63
--
Molecule: CN(C)Cc1ccc(-c2cc3cc(Br)ccc3nc2OCc2cccc3ccccc23)cc1 [SYL1665]
Inhibition HIV/LASV, %: 88.72
--
Molecule: Brc1ccc2nc(OCc3cccc4ccccc34)c(-c3ccc(N4CCCC4)cc3)cc2c1 [SYL1686]
Inhibition HIV/LASV, %: 90.35
--
Molecule: CN(C)Cc1cccc(-c2cc3cc(Br)ccc3nc2Oc2ccncc2)c1 [SYL1648]
Inhibition HIV/LASV, %: 89.27
--
Molecule: CN1CCC(c2ccccc2)(C(O)(c2ccccc2)c2ccc3ccccc3c2)CC1 (centres unmarked) [SYL1644]
Inhibition HIV/LASV, %: 92.36
--
Molecule: COc1nc2ccc(Br)cc2cc1C(O)(Cc1cccc(F)c1)c1ccccc1CN(C)C (centres unmarked) [SYL1649]
Inhibition HIV/LASV, %: 90.46
--
Molecule: CN(C)CCC=C(c1ccccc1)c1cc2ccccc2nc1Oc1cccc2ccccc12.Cl [SYL1627]
Inhibition HIV/LASV, %: 87.33

Kindly consider the entry below.
Q) For the molecule CN1CCN(c2ccc(-c3cc4cc(Br)ccc4nc3OCc3cccc4ccccc34)cc2)CC1 [SYL1669] , give its reported Inhibition HIV/LASV.
A) 92.49

###

Reported Cell Viability values follow for various compounds
test system: A549 cells; conditions: 10 µM
Note: unit % is implicit; provide only the numeric part.

Here's what some known entries look like.
Compound: CN1CCC(c2ccccc2)(C(O)(c2ccccc2)c2ccc3ccccc3c2)CC1 (centres unmarked) [SYL1644]
Cell Viability [%]: 78.35
--
Compound: CN(C)CCC(O)(c1cccc(F)c1)C1c2ccccc2Sc2ccccc21 (centres unmarked) [SYL1634]
Cell Viability [%]: 81.21
--
Compound: COc1nc2ccc(Br)cc2cc1-c1ccc(CN(C)C)cc1 [SYL1689]
Cell Viability [%]: 78.79
--
Compound: Brc1ccc2nc(OCc3cccc4ccccc34)c(-c3ccc(CN4CCOCC4)cc3)cc2c1 [SYL1708]
Cell Viability [%]: 80.29

Lab note: next compound to report on.
Q) Find the measured Cell Viability of Brc1ccc2nc(OCc3cccc4ccccc34)c(-c3ccc(N4CCCC4)cc3)cc2c1 [SYL1686] and report it.
A) 82.03
